So I've got a bunch of compounds here, and I need their IC50 values.
- system-under-test: human FGFR-1 (Homo sapiens)
- Sequence (P11362 22-822 limits assumed): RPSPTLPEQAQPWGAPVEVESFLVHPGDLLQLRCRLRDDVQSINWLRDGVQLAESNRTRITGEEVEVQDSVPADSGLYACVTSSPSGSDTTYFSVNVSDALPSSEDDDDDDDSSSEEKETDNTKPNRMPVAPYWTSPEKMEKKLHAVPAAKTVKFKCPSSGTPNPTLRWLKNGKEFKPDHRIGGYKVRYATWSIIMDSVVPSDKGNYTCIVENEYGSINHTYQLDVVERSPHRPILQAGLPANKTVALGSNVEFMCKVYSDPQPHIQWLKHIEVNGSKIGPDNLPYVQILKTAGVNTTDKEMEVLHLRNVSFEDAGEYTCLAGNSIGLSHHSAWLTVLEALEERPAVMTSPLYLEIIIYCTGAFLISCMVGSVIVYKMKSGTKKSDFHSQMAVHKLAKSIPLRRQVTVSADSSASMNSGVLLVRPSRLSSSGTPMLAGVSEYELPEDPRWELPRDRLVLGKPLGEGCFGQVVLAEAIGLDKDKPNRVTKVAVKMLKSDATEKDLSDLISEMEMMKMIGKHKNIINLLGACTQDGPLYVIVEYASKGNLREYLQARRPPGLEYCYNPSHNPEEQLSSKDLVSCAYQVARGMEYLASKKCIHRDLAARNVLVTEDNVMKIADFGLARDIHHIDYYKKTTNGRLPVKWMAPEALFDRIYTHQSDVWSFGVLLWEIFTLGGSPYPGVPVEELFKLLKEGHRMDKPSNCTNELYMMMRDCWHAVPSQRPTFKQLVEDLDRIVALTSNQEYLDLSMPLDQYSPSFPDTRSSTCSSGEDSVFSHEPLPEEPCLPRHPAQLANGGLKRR
- measurement-notes: FGFR-1 high ATP kinase assay (TR-FRET)
- Type: biochemical
- condition-set: 2 mM ATP; 15 min pre-incubation with enzyme; compounds of the invention
Where a name gives a salt, the structure may show the parent alone.
Value expressed in nM; do not type the unit.

Challenge: Return the recorded IC50 value; entry: `COc1cc(C)cc2cc(-c3c(CN4CCNC(=O)C4)c(CN4CCN(C=O)CC4)n4ncnc(N)c34)sc12`
Response given: 6.8

Challenge: Give IC50 for the following compound: `COc1cc(C)cc2cc(-c3c(CO)c(CN4CCNC(=O)C4)n4ncnc(N)c34)sc12`
Response given: 2.5

Challenge: Output IC50 of `CCNC(=O)c1c(COCC)c(-c2cc3cc(C)cc(OC)c3s2)c2c(N)ncnn12`
Response given: 27

Challenge: Find the measured IC50 of `CCOCc1c(-c2cc3cc(C)cc(OC)c3s2)c2c(N)ncnn2c1C(=O)N1CCS(=O)(=O)CC1` and report it.
Response given: 25.1

Challenge: Read off the recorded IC50 for `COc1cc(C)cc2cc(-c3c(COCCO)c(CN4CCNC(=O)C4)n4ncnc(N)c34)sc12`
Response given: 4.2

Challenge: Please report IC50 for the following compound: `CCOCc1c(-c2cc3cc(C)cc(OC)c3s2)c2c(N)ncnn2c1CN1CCNC(=O)C1(C)C`
Response given: 17

Challenge: Retrieve IC50 measured for `COc1cc(C)cc2cc(-c3c(COC(C)C)c(CN4CCNCC4)n4ncnc(N)c34)sc12` and print it.
Response given: 1.3

Challenge: Answer with the recorded IC50 of `COc1cc(C)cc2cc(-c3c(CN4CCNC(=O)C4)c(CO)n4ncnc(N)c34)sc12` only.
Response given: 5

Challenge: For the compound `CCOCc1c(-c2cc3cc(C)cc(OC)c3s2)c2c(N)ncnn2c1C(=O)N1CNC(=O)C1` , give its measured IC50 value.
Response given: 8.8

Challenge: Tell us which IC50 value is on record for `CCOCc1c(-c2cc3cc(C)cc(OC)c3s2)c2c(N)ncnn2c1C(=O)N1CCC(C(N)=O)CC1`
Response given: 52.7

Challenge: For the compound `COc1cc(C)cc2cc(-c3c(CN4CCNC(=O)C4)c(CN4CCN(C(C)=O)CC4)n4ncnc(N)c34)sc12` , report IC50.
Response given: 3.8

Challenge: Note IC50 for the compound shown: `COc1cc(C)cc2cc(-c3c(CNC(C)=O)c(CN4CCN(C=O)CC4)n4ncnc(N)c34)sc12`
Response given: 5.6

Challenge: Return the recorded IC50 value; entry: `CCOCc1c(-c2cc3cc(C)cc(OC)c3s2)c2c(N)ncnn2c1CN1CCCC1`
Response given: 54.5

Challenge: State its IC50 for this compound: CCOCc1c(-c2cc3cc(C)cc(OC)c3s2)c2c(N)ncnn2c1CN1CCNC(=O)C1C (stereo not shown)
Response given: 8.7

Challenge: // fetch IC50 given entry `CCOCc1c(-c2cc3cc(C)cc(OC)c3s2)c2c(N)ncnn2c1CN1CC(O)C1`
Response given: 16.4

Challenge: Name the recorded IC50 of the compound listed here: `CCOCc1c(-c2cc3cc(C)cc(OC)c3s2)c2c(N)ncnn2c1CN1CCS(=O)(=O)CC1`
Response given: 24.8

Challenge: # return recorded IC50 for input `COc1cc(C)cc2cc(-c3c(COc4ccccc4)c(CN4CCNCC4)n4ncnc(N)c34)sc12`
Response given: 61.3

Challenge: Please report the measured IC50 for COc1cc(C)cc2cc(-c3c(CN4CCC(O)CC4)c(CN4CCNCC4)n4ncnc(N)c34)sc12 [Example 41, trihydrochloride]
Response given: 2.8

Challenge: Please look at this compound and report its IC50: `CCOCc1c(-c2cc3cc(C)cc(OC)c3s2)c2c(N)ncnn2c1CN1CCNC1=O`
Response given: 14.1

Challenge: Given the compound `COc1cc(C)cc2cc(-c3c(CN4CCNC(=O)C4)c(C)n4ncnc(N)c34)sc12` , write its reported IC50.
Response given: 2.8

Challenge: Report measured IC50; entry is `CCOCc1c(-c2cc3cc(C)cc(OC)c3s2)c2c(N)ncnn2c1C(=O)N1CCS(=O)(=O)C1`
Response given: 9

Challenge: Output measured IC50 for this item: `CCOCc1c(-c2cc3cc(C)cc(OC)c3s2)c2c(N)ncnn2c1C(N)=O`
Response given: 8.4

Challenge: Specify reported IC50 for the compound shown: COc1cc(C)cc2cc(-c3c(CNCC(C)O)c(CN4CCOCC4)n4ncnc(N)c34)sc12 (racemic)
Response given: 3.9

Challenge: Kindly indicate its recorded IC50. Item: `CCOCc1c(-c2cc3cc(C)cc(OC)c3s2)c2c(N)ncnn2c1C(=O)N[C@@H]1CCNC1=O`
Response given: 6.4

Challenge: Determine its reported IC50: `COCc1c(-c2cc3cc(OC)cc(OC)c3s2)c2c(N)ncnn2c1CN1CCNC(=O)C1`
Response given: 27.3

Challenge: Using the record for `COc1cc(C)cc2cc(-c3c(CO)c(Cl)n4ncnc(N)c34)sc12` , state its measured IC50.
Response given: 12.6

Challenge: Write down IC50 measured for item `CCOCc1c(-c2cc3cc(C)cc(OC)c3s2)c2c(N)ncnn2c1C(=O)NC1CC1`
Response given: 24.9

Challenge: Check the records and state IC50 for COc1cc(C)cc2cc(-c3c(CNCC(C)(C)O)c(Cl)n4ncnc(N)c34)sc12 [Example 81]
Response given: 1.9

Challenge: Give recorded IC50. `COc1cc(C)cc2cc(-c3c(CN[C@H]4CCNC4=O)c(CN4CCOCC4)n4ncnc(N)c34)sc12`
Response given: 4.4

Challenge: Name the recorded IC50 of the item `CCOCc1c(-c2cc3cc(C)cc(OC)c3s2)c2c(N)ncnn2c1CN[C@@H]1CCNC1=O` in your answer.
Response given: 9.4

Challenge: Please look at this compound and report its IC50: CCN(CC)Cc1c(-c2cc3cc(C)cc(OC)c3s2)c2c(N)ncnn2c1CN1CCNCC1 [Example 43, trihydrochloride]
Response given: 8.6
